Tested on: PPARg DBDmut IVT, anti-PPARg (DBD mutation: PPARg1 K132A/R137A, NR concentration 270 nM)
Experiment: PBM binding z-score (relative to random genomic background probes); higher = stronger binding; sequences stand for … in GC…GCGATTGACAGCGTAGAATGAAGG
PBM binding z-score values, listed per item
Would you mind answering with just the numeric figure?

Check out these entries, answers already filled in.
sequence	PBM binding z-score
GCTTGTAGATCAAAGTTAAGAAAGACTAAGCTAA	0.433
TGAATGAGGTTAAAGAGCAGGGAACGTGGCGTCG	-0.275
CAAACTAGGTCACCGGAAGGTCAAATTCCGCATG	2.87
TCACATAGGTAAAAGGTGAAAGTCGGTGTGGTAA	0.575

### Prompt Given "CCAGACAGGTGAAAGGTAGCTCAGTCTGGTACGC" , state its recorded PBM binding z-score.
### Response -0.199

### Prompt What about "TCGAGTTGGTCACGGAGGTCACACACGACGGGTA" ?
### Response 0.0233

###

Tested on: RARa:RXR (NR concentration 270 nM, RXRa partner concentration 90 nM)
Assay: PBM binding z-score (relative to random genomic background probes); higher = stronger binding; sequences stand for … in GC…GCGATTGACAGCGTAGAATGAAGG
endpoint: PBM binding z-score
Reply with the value as a number alone.

// below: answered sequences
sequence	PBM binding z-score
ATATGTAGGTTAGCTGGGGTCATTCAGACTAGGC	5.73
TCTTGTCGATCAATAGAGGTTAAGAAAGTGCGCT	1.82
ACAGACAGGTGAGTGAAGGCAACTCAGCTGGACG	-0.0789
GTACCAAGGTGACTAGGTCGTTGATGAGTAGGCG	0.639
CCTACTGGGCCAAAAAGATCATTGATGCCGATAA	-0.562

### Prompt Can you share its PBM binding z-score? I mean this sequence: "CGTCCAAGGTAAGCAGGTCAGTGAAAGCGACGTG"
### Response 0.529

### Prompt And for "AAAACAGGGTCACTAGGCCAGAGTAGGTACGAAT" ?
### Response 4.8

###

Test system: RARa:RXR (NR concentration 270 nM, RXRa partner concentration 90 nM)
Experiment: PBM binding z-score (relative to random genomic background probes); higher = stronger binding; sequences stand for … in GC…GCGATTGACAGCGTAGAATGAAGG
endpoint: PBM binding z-score
# answer = number (no unit)

### Prompt # query: PBM binding z-score of entry "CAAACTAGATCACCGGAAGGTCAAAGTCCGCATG"
### Response 3.99

### Prompt Also, "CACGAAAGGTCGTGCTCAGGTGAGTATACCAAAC" please.
### Response 4.28

### Prompt Now consider "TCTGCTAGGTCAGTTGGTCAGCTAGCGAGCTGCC" and answer again.
### Response 0.452

### Prompt Also "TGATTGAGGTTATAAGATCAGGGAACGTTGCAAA" ?
### Response 1.5

### Prompt Then what about the sequence "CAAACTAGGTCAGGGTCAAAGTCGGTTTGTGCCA" ?
### Response 5.35

### Prompt Param item: "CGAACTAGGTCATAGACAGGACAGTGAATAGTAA"
### Response 2.07

### Prompt Another sequence: "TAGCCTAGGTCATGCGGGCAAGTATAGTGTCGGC"
### Response 2.21

### Prompt Can you handle "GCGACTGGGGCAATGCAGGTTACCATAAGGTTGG" next?
### Response 0.919

### Prompt Would you kindly repeat that for "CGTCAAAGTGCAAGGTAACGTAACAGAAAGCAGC" ?
### Response 0.344

### Prompt Do the same for "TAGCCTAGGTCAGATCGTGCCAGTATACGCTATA" please
### Response 1.23

### Prompt What would you report for "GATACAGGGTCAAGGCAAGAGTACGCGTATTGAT" ?
### Response 4.61

### Prompt Entry "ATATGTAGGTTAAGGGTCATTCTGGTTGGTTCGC" please
### Response 5.63

### Prompt Moving on to "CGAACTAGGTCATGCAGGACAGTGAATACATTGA"
### Response 1.97

### Prompt Also "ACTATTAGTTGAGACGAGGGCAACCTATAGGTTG" , if possible.
### Response 1.09

### Prompt Thanks! And "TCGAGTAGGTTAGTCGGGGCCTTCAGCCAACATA" ?
### Response -0.0225

### Prompt Do the same for "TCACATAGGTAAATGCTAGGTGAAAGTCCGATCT" please
### Response 0.692

### Prompt Another sequence to look at: "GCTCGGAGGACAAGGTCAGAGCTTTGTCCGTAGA"
### Response 2.24

### Prompt Can you check "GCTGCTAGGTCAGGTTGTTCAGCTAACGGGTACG" next?
### Response 0.883

### Prompt Field entry: "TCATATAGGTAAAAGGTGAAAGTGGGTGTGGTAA"
### Response 3.5

### Prompt Another sequence to look at: "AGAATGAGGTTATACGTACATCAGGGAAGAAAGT"
### Response 1.82
